Target sequence: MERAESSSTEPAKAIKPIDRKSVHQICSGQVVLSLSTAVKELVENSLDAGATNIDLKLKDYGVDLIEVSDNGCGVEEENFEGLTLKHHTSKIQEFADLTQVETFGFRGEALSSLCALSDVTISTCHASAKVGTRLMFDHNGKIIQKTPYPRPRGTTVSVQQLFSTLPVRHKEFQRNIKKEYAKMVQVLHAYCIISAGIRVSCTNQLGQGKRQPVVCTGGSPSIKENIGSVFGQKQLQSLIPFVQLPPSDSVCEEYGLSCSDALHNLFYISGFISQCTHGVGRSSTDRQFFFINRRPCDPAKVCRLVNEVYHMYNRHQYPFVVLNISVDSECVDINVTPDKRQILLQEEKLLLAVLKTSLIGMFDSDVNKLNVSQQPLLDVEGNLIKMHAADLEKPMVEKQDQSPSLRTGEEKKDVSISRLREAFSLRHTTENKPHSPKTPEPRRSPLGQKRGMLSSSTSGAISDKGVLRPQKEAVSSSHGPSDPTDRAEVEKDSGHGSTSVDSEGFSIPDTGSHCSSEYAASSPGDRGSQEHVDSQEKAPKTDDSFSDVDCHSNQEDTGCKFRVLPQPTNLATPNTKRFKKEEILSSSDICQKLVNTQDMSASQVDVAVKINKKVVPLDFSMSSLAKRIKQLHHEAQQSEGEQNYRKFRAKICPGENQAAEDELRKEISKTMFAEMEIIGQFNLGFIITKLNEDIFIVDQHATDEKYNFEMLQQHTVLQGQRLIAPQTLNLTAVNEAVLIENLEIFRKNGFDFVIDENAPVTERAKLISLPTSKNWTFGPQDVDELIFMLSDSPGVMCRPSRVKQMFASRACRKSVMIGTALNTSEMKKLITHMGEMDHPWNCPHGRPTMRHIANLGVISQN
pIC50: −log10 of the molar value.
observation.type: pIC50

Quick one: give measured pIC50 for C=C(CN(C)C)C(=O)Nc1cccc2c1CN(C(=O)c1c(O)cc(O)c(C)c1OC)C2
< 6.00
